# MEASUREMENT NOTES: Human cytosol stability assay, intestinal cytosol
# CONDITION LABEL: human, human intestinal cytosol, with Epalrestat (AKR1B inhibitor), 100 µM, t1/2 (min), human intestinal cytosol + NADPH + AKR1B inhibitor (Epalrestat 100 µM)
OBSERVATION TYPE: half-life at 1 µM (h)
I only need the number, in h, no unit after it.

Fill in the blank: the reported half-life at 1 µM of "CC(=O)[C@H]1CC[C@H]2[C@@H]3CCC4=CC(=O)CC[C@]4(C)[C@H]3CC[C@]12C" is ____.
3.07

###

# MEASUREMENT NOTES: Human cytosol stability assay, liver cytosol
# CONDITION LABEL: human, human liver cytosol, with Finasteride (AKR1D1 inhibitor), 100 µM, t1/2 (min), human liver cytosol + NADPH + AKR1D1 inhibitor (Finasteride 100 µM)
OBSERVATION TYPE: half-life at 1 µM (min)
I only need the number, in min, no unit after it.

Fill in the blank: the reported half-life at 1 µM of "CC(=O)[C@H]1CC[C@H]2[C@@H]3CCC4=CC(=O)CC[C@]4(C)[C@H]3CC[C@]12C" is ____.
18.5

###

# MEASUREMENT NOTES: Tissue homogenate stability assay, rat intestinal homogenate
# Format: in vitro ADME
# CONDITION LABEL: Sprague Dawley, rat, rat intestinal homogenate, pH 7.4, rat intestinal homogenate + 1 mM NADPH
OBSERVATION TYPE: half-life (h)
I only need the number, in h, no unit after it.

Fill in the blank: the reported half-life of CC(=O)[C@H]1CC[C@H]2[C@@H]3CCC4=CC(=O)CC[C@]4(C)[C@H]3CC[C@]12C [Progesterone] is ____.
3.29

###

# MEASUREMENT NOTES: Tissue homogenate stability assay, rat liver homogenate
# Assay type: in vitro ADME
# CONDITION LABEL: Sprague Dawley, rat, rat liver homogenate, pH 7.4, rat liver homogenate + 1 mM NADPH
# Protocol: Progesterone stability was determined in rat and human intestinal mucosa and liver homogenates. In addition, progesterone was incubated in stock solution containing phosphate-buffered saline, 0.1% Tween80 and 1% DMSO. […] Stability assays were carried out either in the presence or absence of 1mM of the cofactor NADPH. The physiological concentration of NADPH was approximately 100 µM [26]. […]
OBSERVATION TYPE: half-life
Answer with the number, then the unit.

Fill in the blank: the reported half-life of "CC(=O)[C@H]1CC[C@H]2[C@@H]3CCC4=CC(=O)CC[C@]4(C)[C@H]3CC[C@]12C" is ____.
2.7 min

###

# MEASUREMENT NOTES: Human cytosol stability assay, liver cytosol
# CONDITION LABEL: human, human liver cytosol, t1/2 (min), liver cytosol section (Figure 4), absence of NADPH, no inhibitor; line printed as Human intestinal Cytosol
OBSERVATION TYPE: half-life at 1 µM

Fill in the blank: the reported half-life at 1 µM of "CC(=O)[C@H]1CC[C@H]2[C@@H]3CCC4=CC(=O)CC[C@]4(C)[C@H]3CC[C@]12C" is ____.
1.72 h

###

# MEASUREMENT NOTES: Human cytosol stability assay, intestinal cytosol
# CONDITION LABEL: human, human intestinal cytosol, t1/2 (min), human intestinal cytosol + NADPH, no inhibitor
OBSERVATION TYPE: half-life at 1 µM (h)
I only need the number, in h, no unit after it.

Fill in the blank: the reported half-life at 1 µM of CC(=O)[C@H]1CC[C@H]2[C@@H]3CCC4=CC(=O)CC[C@]4(C)[C@H]3CC[C@]12C [Progesterone] is ____.
2.16
